Where these numbers come from: ChEMBL document CHEMBL2218924

- SYSTEM TESTED: Serine/threonine-protein kinase PAK 5 (Homo sapiens) (UniProt Q9P286)
- Sequence (Q9P286 whole entry, looked up): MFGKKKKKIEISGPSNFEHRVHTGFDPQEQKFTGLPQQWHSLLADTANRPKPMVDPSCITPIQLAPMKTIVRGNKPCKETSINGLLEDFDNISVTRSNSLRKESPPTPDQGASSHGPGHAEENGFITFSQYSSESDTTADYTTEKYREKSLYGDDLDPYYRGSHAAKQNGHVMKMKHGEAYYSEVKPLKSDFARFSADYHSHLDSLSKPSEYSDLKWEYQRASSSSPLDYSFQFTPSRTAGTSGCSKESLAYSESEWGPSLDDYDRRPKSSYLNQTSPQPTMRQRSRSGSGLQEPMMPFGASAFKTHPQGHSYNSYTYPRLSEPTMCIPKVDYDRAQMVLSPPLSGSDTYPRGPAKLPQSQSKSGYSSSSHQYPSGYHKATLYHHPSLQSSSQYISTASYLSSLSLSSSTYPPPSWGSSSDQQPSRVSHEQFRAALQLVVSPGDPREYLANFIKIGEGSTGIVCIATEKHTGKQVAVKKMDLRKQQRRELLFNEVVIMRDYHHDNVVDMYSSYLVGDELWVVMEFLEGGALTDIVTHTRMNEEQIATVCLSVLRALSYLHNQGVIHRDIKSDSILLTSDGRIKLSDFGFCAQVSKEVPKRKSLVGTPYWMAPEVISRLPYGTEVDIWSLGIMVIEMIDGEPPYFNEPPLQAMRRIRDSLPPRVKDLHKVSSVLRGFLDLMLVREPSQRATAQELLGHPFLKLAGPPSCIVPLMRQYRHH
- PROTOCOL CONDITIONS: at 1 µM
MEASURED PARAMETER: residual activity (%)
Please give a number only; it is taken to be in %.

These solved cases illustrate the format of a correct answer.
COMPOUND: O=c1[nH]c2ccccc2n1C1CCN(Cc2ccc(-c3nc4cc5[nH]cnc5cc4nc3-c3ccccc3)cc2)CC1
QUANTITY UNIT: %
residual activity: 84
--
COMPOUND: CCc1nc(-c2ccc(OC)cc2)[nH]c1-c1ccncc1
QUANTITY UNIT: %
residual activity: 111
--
COMPOUND: C[S+]([O-])c1ccc(-c2nc(-c3ccc(F)cc3)c(-c3ccncc3)[nH]2)cc1 (stereo not given)
QUANTITY UNIT: %
residual activity: 105
--
COMPOUND: O=C1Nc2ccc3ncsc3c2/C1=C/c1c[nH]cn1
QUANTITY UNIT: %
residual activity: 70

The value of residual activity recorded for O=C1c2ccccc2-c2nc3nnnn3nc21 when tested on Serine/threonine-protein kinase PAK 5 (Homo sapiens) (UniProt Q9P286) reads 80

* * *

Consider the following molecules and their measured residual activity readings.
- SYSTEM TESTED: Discoidin domain-containing receptor 2 (Homo sapiens)
- PROTOCOL CONDITIONS: at 1 µM
Give the quantity in %, number only.

ENTRY SMILES: O=c1[nH]c2ccccc2n1C1CCN(Cc2ccc(-c3nc4cc5[nH]cnc5cc4nc3-c3ccccc3)cc2)CC1
SYSTEM TESTED: Discoidin domain-containing receptor 2 (Homo sapiens)
RECORDED MEASUREMENT: 109
//
ENTRY SMILES: CC(C)[C@H](CO)Nc1nc(Nc2cccc(Cl)c2)c2ncn(C(C)C)c2n1
SYSTEM TESTED: Discoidin domain-containing receptor 2 (Homo sapiens)
RECORDED MEASUREMENT: 91
//
ENTRY SMILES: O=C1Nc2ccc3ncsc3c2/C1=C/c1c[nH]cn1
SYSTEM TESTED: Discoidin domain-containing receptor 2 (Homo sapiens)
RECORDED MEASUREMENT: 113
//
ENTRY SMILES: O=C1NC(=O)c2c1c1c3ccccc3n3c1c1c2c2ccccc2n1C1CCC3O1
SYSTEM TESTED: Discoidin domain-containing receptor 2 (Homo sapiens)
RECORDED MEASUREMENT: 77

// assay Discoidin domain-containing receptor 2 (Homo sapiens), entry COc1cc2ncnc(Nc3ccc(OCc4ccccc4)cc3)c2cc1OC , residual activity value = 108

// molecule COC(=O)[C@@]1(O)C[C@H]2O[C@]1(C)n1c3ccccc3c3c4c(c5c6ccccc6n2c5c31)C(=O)NC4 , assay Discoidin domain-containing receptor 2 (Homo sapiens), residual activity value: 56

* * *

- SYSTEM TESTED: Tyrosine-protein kinase ABL1 (Homo sapiens) (UniProt P00519)
- Sequence (P00519 whole entry): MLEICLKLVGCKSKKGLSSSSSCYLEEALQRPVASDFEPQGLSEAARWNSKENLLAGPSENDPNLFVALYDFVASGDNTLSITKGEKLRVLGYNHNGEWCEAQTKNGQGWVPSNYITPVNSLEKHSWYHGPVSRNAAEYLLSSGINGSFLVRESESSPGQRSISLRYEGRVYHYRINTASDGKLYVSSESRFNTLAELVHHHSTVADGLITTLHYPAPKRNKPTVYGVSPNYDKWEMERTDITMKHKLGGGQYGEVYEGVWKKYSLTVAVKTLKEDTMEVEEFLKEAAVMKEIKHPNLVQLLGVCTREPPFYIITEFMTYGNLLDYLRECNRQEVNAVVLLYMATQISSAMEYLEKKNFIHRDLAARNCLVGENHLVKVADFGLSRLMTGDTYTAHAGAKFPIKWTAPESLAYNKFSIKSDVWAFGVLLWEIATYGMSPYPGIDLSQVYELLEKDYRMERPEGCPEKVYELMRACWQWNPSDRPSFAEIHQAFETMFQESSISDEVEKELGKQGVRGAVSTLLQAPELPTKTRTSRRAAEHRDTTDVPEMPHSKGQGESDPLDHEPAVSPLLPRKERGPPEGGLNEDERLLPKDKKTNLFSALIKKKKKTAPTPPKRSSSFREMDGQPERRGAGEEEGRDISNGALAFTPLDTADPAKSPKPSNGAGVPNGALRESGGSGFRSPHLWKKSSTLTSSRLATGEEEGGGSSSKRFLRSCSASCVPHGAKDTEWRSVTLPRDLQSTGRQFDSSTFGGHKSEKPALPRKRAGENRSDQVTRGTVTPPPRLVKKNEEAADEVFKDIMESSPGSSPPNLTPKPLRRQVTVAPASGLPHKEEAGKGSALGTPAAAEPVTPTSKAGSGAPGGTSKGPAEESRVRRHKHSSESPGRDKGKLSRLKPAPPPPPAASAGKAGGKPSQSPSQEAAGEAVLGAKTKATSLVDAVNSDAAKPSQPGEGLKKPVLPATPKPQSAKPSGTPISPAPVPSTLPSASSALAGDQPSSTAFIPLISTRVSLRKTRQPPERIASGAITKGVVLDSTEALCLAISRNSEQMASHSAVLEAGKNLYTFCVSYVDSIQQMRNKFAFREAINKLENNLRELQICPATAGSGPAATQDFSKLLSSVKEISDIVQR
- PROTOCOL CONDITIONS: at 1 µM
Kind request: treat 70% as inclusive, so residual activity at 70% or higher is Satisfied, anything lower is Not satisfied.

The following compounds have reported results that may help.
ENTRY SMILES: O=C1c2ccccc2-c2nc3nnnn3nc21
LABEL VALUE: Satisfied
//
ENTRY SMILES: O=C1Nc2ccc3ncsc3c2/C1=C/c1c[nH]cn1
LABEL VALUE: Not satisfied
//
ENTRY SMILES: COc1cc(OC)c(/C=C2\C(=O)Nc3ccccc32)c(OC)c1
LABEL VALUE: Satisfied

Exercise: Test whether the compound O=[N+]([O-])/C=C/c1ccc2c(c1)OCO2 records residual activity of 70% or higher.
Solution: Satisfied

Exercise: Has c1cc(-c2cnn3cc(-c4ccc(OCCN5CCCCC5)cc4)cnc23)ccn1 a recorded residual activity greater than or equal to 70%?
Solution: Not satisfied
